# Test system: NCI-H226 lung
# ASSAY PROTOCOL: NCI tumour cell line growth inhibition, 48 h
REPORTED ENDPOINT: TGI (µM)
Quick reminder: number only, in µM, skip the unit.

• O=C(Nc1ccc(Cl)c(Cl)c1)C(=O)C(C(=O)c1ccccc1-c1ccccc1)C1OC(=O)c2ccccc21 (centres undefined) = 15.1

Now, please, on to the next compound.
Give its TGI value. Item: `CCc1nc2ccc(N=Nc3c(O)ccc4ccccc34)cc2[nH]1` 41.1

---

# System: UACC-62 melanoma
# ASSAY PROTOCOL: NCI tumour cell line growth inhibition, 48 h
Label 1 (yes) when TGI is at or above 20 µM; otherwise label 0 (no).

- CCCCCCCCCCCCOC1C(CNC(=O)C2OC3OC(C)(C)OC3C2NC(=O)CN2CCN(c3ccc(OC)cc3)CC2)OC2OC(C)(C)OC21 (centres undefined): 0 (no)
- Cn1c2c(c3c(Cl)nncc31)Cc1ccccc1-2: 1 (yes)
- Cc1cc(C)c(-c2c(N)cc(Br)cc2Br)c(N)c1: 0 (no)
- CC(C)C1NC(=O)CC(c2ccccc2)N(N=O)C1c1ccccc1 (centres undefined): 1 (yes)
- CC(C)COc1nc2c(c(=O)n(C)c(=O)n2C)n1C: 1 (yes)

Answer whether TGI of COC1(OC)C2(Cl)C(Cl)=C(Cl)C1(Cl)C1C2C2CC1(C(=O)O)c1ccccc12 (centres undefined) is greater than or equal to 20 µM. 1 (yes)

Answer whether TGI of CCN(CC)CCCC(C)N/C(=C1\C(=O)NC(=O)\C1=C(/NC(C)CCCN(CC)CC)c1cccc(OC)c1)c1cccc(OC)c1 (centres undefined) is greater than or equal to 20 µM. 0 (no)

---

# System: SF-295 CNS
# ASSAY PROTOCOL: NCI tumour cell line growth inhibition, 48 h
REPORTED ENDPOINT: TGI

* CC(=O)[CH-]C(=O)c1ccccc1.CC(=O)[CH-]C(=O)c1ccccc1.O=S(=O)([O-])c1cc([O-])c2c([O-])cc(S(=O)(=O)[O-])cc2c1.[Na+].[Zr+4] | > 100 µM

Hello, I am looking for reported TGI with SF-295 CNS for `CC(=O)[C@H]1CCC/C=C/[C@@H]2C[C@H](O)C[C@H]2[C@H](O)/C=C/C(=O)O1` . Could you help? > 100 µM

Hello, I am looking for reported TGI with SF-295 CNS for `O=C(NNC(=S)NC1CCCCC1)C12CC3CC(CC(C3)C1)C2` . Could you help? > 100 µM

Hello, I am looking for reported TGI with SF-295 CNS for `CSc1ccc(Nc2cc(=O)[nH]c(=O)[nH]2)cc1` . Could you help? > 100 µM

Hello, I am looking for reported TGI with SF-295 CNS for CCC(C)[C@@H](Nc1c(O)c2c(c(O)c1Cl)C(=O)C=CC2=O)C(=O)OC (some centres undefined) . Could you help? > 10 µM

Hello, I am looking for reported TGI with SF-295 CNS for `CCOC(=O)/C(=N/Nc1ccccc1)N1C(=S)C=C(C)NN(C)C1=S` . Could you help? 84.9 µM

Hello, I am looking for reported TGI with SF-295 CNS for `COC(=O)c1cc2c3ccccc3n3c2c(n1)-c1[nH]c2ccccc2c(=O)c1C3` . Could you help? > 100 µM

Hello, I am looking for reported TGI with SF-295 CNS for CC1(C)CCCC(C)(C2CCC3(C)C2C(O)CC2C4(C)CCC(O)C(C)(C)C4CCC23C)O1 (centres undefined) . Could you help? > 100 µM

Hello, I am looking for reported TGI with SF-295 CNS for `COc1ccc2c(c1)/C(=C\c1c(Cl)[nH]c3ccccc13)C(=O)N2` . Could you help? 6.26 µM

---

# Test system: ACHN renal
# ASSAY PROTOCOL: NCI tumour cell line growth inhibition, 48 h
Measured TGI, listed per entry for reference.

In the examples that follow, each entry is paired with its recorded TGI.
• Cc1cccc(C)c1N1C(=O)C(=O)C(c2nc3ccccc3s2)/C(=N\N)C1=O (stereo not given) = > 100 µM
• COc1ccc(S(=O)(=O)N(CC(=O)O)c2ccccc2)cc1 = > 100 µM
• Cc1ccc2nc(C(C)C)c(=O)[nH]c2c1 = > 100 µM

Hello, I am looking for reported TGI with ACHN renal for Clc1cccc(C2N3CCCCC3[C@@H]3c4[nH]c5ccccc5c4CCN23)c1 (stereo not given in full) . Could you help? 69.4 µM

Hello, I am looking for reported TGI with ACHN renal for `COC(=O)c1oc2c(C(=O)/C=C/c3ccc(OC)cc3)c(OCCN(C)C)ccc2c1C` . Could you help? 19.5 µM

Hello, I am looking for reported TGI with ACHN renal for Nc1ncnc2c1ncn2C1CCC(CP(=O)(O)O)C1 (stereo not given) . Could you help? > 100 µM

Hello, I am looking for reported TGI with ACHN renal for COC(=O)C1C(=O)O[C@@H](c2cc(OC)c(OC)cc2OC)C1C(=O)OC (mixture of isomers) . Could you help? > 100 µM

Hello, I am looking for reported TGI with ACHN renal for `CC(=O)NNc1nc(C)c(C(/C=C/c2ccccc2O)=N/N=C(N)N)s1` . Could you help? > 100 µM

---

# System: RPMI-8226 leukemia
# ASSAY PROTOCOL: NCI tumour cell line growth inhibition, 48 h
REPORTED ENDPOINT: GI50

In the examples that follow, each entry is paired with its recorded GI50.
• C=CCC(N[C@@H](CO)c1ccccc1)c1cn(C(=O)OCC)c2ccccc12 (some centres not stated) = 17.9 µM
• C/C(=C(\c1ccc(OCCN2CCCCCC2)cc1)c1ccc(OC(=O)c2ccccc2)cc1)c1ccc(Cl)cc1 = 3.03 µM
• Cn1cc(-c2cnn3c(N)c(Br)c(C4CCCNC4)nc23)cn1 (configuration not stated) = 4.7 µM
• CC(=O)C1=C(O)C=C2Oc3c(C(=O)/C=C/c4cc(Cl)cc(Cl)c4)c(O)c(C)c(O)c3[C@]2(C)C1=O = 0.452 µM
• N#Cc1cnc(Nc2cc(NC[C@H]3CNCCO3)c(C(F)(F)F)cn2)cn1 = 15.7 µM

Give its GI50 value. Item: `CCCCCCCCCC[C@H](O)[C@H](O)CC[C@@H](O)[C@H]1CC[C@@H]([C@H]2CC[C@H](CCCCCCC[C@@H](O)CC3=C[C@H](C)OC3=O)O2)O1` 16.6 µM

Give its GI50 value. Item: `c1ccc(CNCCN(CCNCc2ccccn2)Cc2ccc3ccccc3c2)nc1` 2.67 µM

---

Measured TGI, listed per entry for reference.
# Tested on: LOX IMVI melanoma
# ASSAY PROTOCOL: NCI tumour cell line growth inhibition, 48 h

* Cc1cc(Nc2nc(N[C@@H](C)c3ncc(F)cn3)ncc2Cl)n[nH]1 | > 100 µM
* Nc1nc(NCCCO)cc(=O)[nH]1 | > 100 µM
* COC(=O)c1oc2c(C(=O)/C=C/c3ccc(OC)cc3)c(OCCN(C)C)ccc2c1C | 17 µM
* CCC1(c2ccc(N3C(=O)c4cc(OC)c(OC)cc4C3=O)cc2)CCC(=O)NC1=O (centres undefined) | > 10 µM
* COc1ccc2c(c1)CCCN1CCc3ccccc3C21 (centres undefined) | > 100 µM
* COC(=O)[C@@H]1Cc2c([nH]c3ccccc23)[C@H](c2ccccc2)N1 | > 100 µM
* CCOP(=O)(OCC)C(C(=O)OC)C(=O)C(=O)Nc1cccc(O)c1 (centres undefined) | > 100 µM
* CC(=O)[C@H]1CCC2[C@@H]3CC=C4C[C@@H]([O-])CC[C@]4(C)C3CC[C@@]21C.CC(=O)[C@H]1CCC2[C@@H]3CC=C4C[C@@H]([O-])CC[C@]4(C)C3CC[C@@]21C.CC(=O)[CH-]C(=O)c1ccccc1.CC(=O)[CH-]C(=O)c1ccccc1.Cl.[Ti+4] (some centres undefined) | > 100 µM

Give its TGI value. Item: `Cn1c2c(c3c(Cl)nncc31)Cc1ccccc1-2` > 100 µM

---

# Test system: TK-10 renal
# ASSAY PROTOCOL: NCI tumour cell line growth inhibition, 48 h
Measured TGI, listed per entry for reference.

In the examples that follow, each entry is paired with its recorded TGI.
* Cn1c2c(c3c(Cl)nncc31)Cc1ccccc1-2 | > 100 µM
* CCc1nc2ccc(N=Nc3c(O)ccc4ccccc34)cc2[nH]1 | 32.6 µM
* NC1CCC(N(CC(=O)O)CC(=O)O)C(N(CC(=O)O)CC(=O)O)C1 (centres undefined) | > 100 µM
* CCOc1ccn(-c2ccc(F)cc2)c(=O)c1C(=O)Nc1ccc(Oc2ccnc(N)c2Cl)c(F)c1 | 55.2 µM
* O=C(/C=C/c1cccc([N+](=O)[O-])c1)c1ccc([N+](=O)[O-])cc1 | > 100 µM

Give its TGI value. Item: CC(=O)N1N=C(c2ccc(Nc3nc(Nc4ccc(F)cc4)nc(Nc4ccc(F)cc4)n3)cc2)CC1c1ccc(N(C)C)cc1 (centres undefined) 39.2 µM

Give its TGI value. Item: `N/N=C(/Cc1nc2ccc(C(=O)c3ccccc3)cc2[nH]c1=O)C(=O)Nc1ccc([N+](=O)[O-])cc1[N+](=O)[O-]` > 100 µM

Give its TGI value. Item: `Cc1cc2nc3ccccc3n2c2nc(N)ccc12` > 100 µM

Give its TGI value. Item: `CC(=O)NNc1nc(C)c(C(/C=C/c2ccccc2O)=N/N=C(N)N)s1` > 100 µM

Give its TGI value. Item: C=C1C(=O)O[C@H]2C1C[C@@H](OC(C)=O)/C(C)=C/CC[C@@]1(C)O[C@H]21 (some centres undefined) 17.4 µM

Every entry's value here was drawn from PubChem BioAssay (NCI).
